tested on: Mycobacterium tuberculosis; assay: Antitubercular activity against Mycobacterium tuberculosis harboring DprE1 C387S mutant assessed as reduction in bacterial growth incubated for 14 days; format: functional; conditions: time 14 day
Measured MIC90 accompanies every entry in the list below.

Worked cases, MIC90 given:
- compound: "O=C(NCCc1ccc(C(F)(F)F)cc1)c1c[nH]c2c([N+](=O)[O-])cc(C(F)(F)F)cc2c1=O"
  MIC90: "54.2 µM"
- compound: "O=C(NCCc1ccc(F)cc1)c1c[nH]c2c([N+](=O)[O-])cc(C(F)(F)F)cc2c1=O"
  MIC90: ">62 µM"
- compound: "NNC(=O)c1ccncc1 [ISONIAZID]"
  MIC90: "3.3 µM"
- compound: "COc1c(N2C[C@@H]3CCCN[C@@H]3C2)c(F)cc2c(=O)c(C(=O)O)cn(C3CC3)c12 [MOXIFLOXACIN]"
  MIC90: "0.05 µM"

State the recorded MIC90 for this entry: O=C(NCCc1ccc(Cl)cc1)c1c[nH]c2c([N+](=O)[O-])cc(C(F)(F)F)cc2c1=O
44.8 µM

* * *

system: Mycobacterium tuberculosis; test: Antitubercular activity against moxifloxacin-resistant Mycobacterium tuberculosis assessed as reduction in bacterial growth incubated for 14 days; assay type: functional; conditions: 336 h, time 14 day
Measured MIC90 accompanies every entry in the list below.
Answer format: numeric, µM implied, no suffix.

Worked cases, MIC90 given:
- smiles-repr: "O=C(NCCc1ccc(F)cc1)c1c[nH]c2c([N+](=O)[O-])cc(C(F)(F)F)cc2c1=O"
  target-of-assay: "Mycobacterium tuberculosis"
  MIC90 [µM]: 1.9
- smiles-repr: "NNC(=O)c1ccncc1"
  target-of-assay: "Mycobacterium tuberculosis"
  MIC90 [µM]: 3.6
- smiles-repr: "COc1c(N2C[C@@H]3CCCN[C@@H]3C2)c(F)cc2c(=O)c(C(=O)O)cn(C3CC3)c12"
  target-of-assay: "Mycobacterium tuberculosis"
  MIC90 [µM]: 6.3
- smiles-repr: "O=C(NCCc1ccc(C(F)(F)F)cc1)c1c[nH]c2c([N+](=O)[O-])cc(C(F)(F)F)cc2c1=O"
  target-of-assay: "Mycobacterium tuberculosis"
  MIC90 [µM]: 0.9

Consider the additional compound presented here.
State the recorded MIC90 for this entry: O=C(NCCc1ccc(Cl)cc1)c1c[nH]c2c([N+](=O)[O-])cc(C(F)(F)F)cc2c1=O
1.9
